As shown below, each of these molecules has a reported efficacy (kill) value.
System: adult Musca domestica
EXPERIMENTAL_PROTOCOL: Musca domestica test
Format: in vivo
MEASUREMENT_PARAMETERS: 20 ppm; after 2 days
Give the number; % is assumed, so skip it.

Some molecules with recorded efficacy (kill):
{"SMILES_INPUT": "COc1nccnc1-n1nc(C(F)(F)F)c(-c2cc(Cl)c3c(c2)OCO3)c1N", "efficacy (kill) (%)": 90}
{"SMILES_INPUT": "COc1cc(-c2c(C(F)(F)F)nn(-c3nccnc3OC)c2N)cc(Cl)c1OC", "efficacy (kill) (%)": 80}
{"SMILES_INPUT": "COc1nccnc1-n1nc(C(F)(F)F)c(-c2ccc(Br)cc2)c1N", "efficacy (kill) (%)": 80}
{"SMILES_INPUT": "COc1nccnc1-n1nc(C(F)(F)F)c(-c2cc(Cl)c3c(c2)OCCO3)c1N", "efficacy (kill) (%)": 80}

Requested read-out: efficacy (kill). Entry: COc1nccnc1-n1nc(C(F)(F)F)c(-c2cc(C(F)(F)F)cc(C(F)(F)F)c2)c1N
90

###

EXPERIMENTAL_PROTOCOL: logP by HPLC on reversed-phase columns (C 18), EEC Directive 79/831 Annex V.A8
Type: physicochemical
MEASUREMENT_PARAMETERS: reversed-phase C18 HPLC column, pH 2.3, ** acidic range pH 2.3, 0.1% aqueous phosphoric acid and acetonitrile; read-out: log P
As shown below, each of these molecules has a reported chromatographic logP value.
Keep it simple and answer with nothing but the number.

{"SMILES_INPUT": "CCCOc1nccnc1-n1nc(C(F)(F)F)c(-c2ccc(Br)cc2)c1N", "chromatographic logP": 4.11}

Here is the next item to consider.
Requested read-out: chromatographic logP. Entry: CCOc1nccnc1-n1nc(C(F)(F)F)c(-c2ccc(Br)cc2)c1N
3.6

###

System: green peach aphid (Myzus persicae)
EXPERIMENTAL_PROTOCOL: Myzus test (MYZUPE spray treatment)
Type: in vivo
MEASUREMENT_PARAMETERS: Myzus persicae, 144 h, Chinese cabbage discs, after 6 days, read-out: efficacy
ENDPOINT: pest or weed control at 500 g/ha

Some compounds with recorded pest or weed control at 500 g/ha:
{"SMILES_INPUT": "COc1nccnc1-n1nc(C(F)(F)F)c(-c2cc(Cl)c3c(c2)OCO3)c1N", "pest or weed control at 500 g/ha": "90%"}
{"SMILES_INPUT": "COc1nccnc1-n1nc(C(F)(F)F)c(-c2cc(C(F)(F)F)cc(C(F)(F)F)c2)c1N", "pest or weed control at 500 g/ha": "100%"}
{"SMILES_INPUT": "CCOc1nccnc1-n1nc(CC)c(-c2cc(Cl)c3c(c2)OCO3)c1N", "pest or weed control at 500 g/ha": "100%"}

Requested read-out: pest or weed control at 500 g/ha. Entry: COc1nccnc1-n1nc(C(F)(F)F)c(-c2cc(Br)c3c(c2)OCO3)c1N
90%

Requested read-out: pest or weed control at 500 g/ha. Entry: COc1nccnc1-n1nc(C(C)C)c(-c2cc(Cl)c3c(c2)OCO3)c1N
100%

Requested read-out: pest or weed control at 500 g/ha. Entry: CCOc1nccnc1-n1nc(C(F)(F)F)c(-c2cc(F)c3c(c2)OCO3)c1N
100%
